- Tested on: PC-14
- assay overview: relative viability (nuclei count vs DMSO), 5 days (fraction); higher = more cells survive
- condition: first compound 0.04 µM
parameter measured: relative viability
Just the number, please, no unit after it.

Examples from the recorded data:
Clc1ccc(Nc2nnc(Cc3ccncc3)c3ccccc23)cc1 [Vatalanib] + Cc1nc(NC(=O)N2CCC[C@H]2C(N)=O)sc1-c1ccnc(C(C)(C)C(F)(F)F)c1 [Alpelisib] (partner 2 µM) : 0.993
Clc1ccc(Nc2nnc(Cc3ccncc3)c3ccccc23)cc1 [Vatalanib] + Nc1nc2[nH]cc(CCc3ccc(C(=O)N[C@@H](CCC(=O)O)C(=O)O)cc3)c2c(=O)[nH]1 [Pemetrexed] (partner 0.2 µM) : 0.135

Next molecule, relative viability to be filled in.
Provide value of relative viability for this record tested with PC-14: C[C@@H]1CN(CC(=O)Nc2ccc3c(c2)Cc2cccc(-c4cc(=O)cc(N5CCOCC5)o4)c2S3)C[C@H](C)O1 + CCNC(=O)c1noc(-c2cc(C(C)C)c(O)cc2O)c1-c1ccc(CN2CCOCC2)cc1 [Luminespib] (partner 0.01 µM)
0.142

---

Catalogue of relative viability values
- Test system: IA-LM
- assay overview: relative viability (nuclei count vs DMSO), 5 days (fraction); higher = more cells survive
- condition: first compound 0.1265 µM
The reply should be a number, written without any unit.

Take a look at these entries with their results.
C[C@@H]1CN(CC(=O)Nc2ccc3c(c2)Cc2cccc(-c4cc(=O)cc(N5CCOCC5)o4)c2S3)C[C@H](C)O1 + O=C(c1cc(Cc2n[nH]c(=O)c3ccccc23)ccc1F)N1CCN(C(=O)C2CC2)CC1 [Olaparib] (partner 8 µM) : 0.976
C[C@@H]1CN(CC(=O)Nc2ccc3c(c2)Cc2cccc(-c4cc(=O)cc(N5CCOCC5)o4)c2S3)C[C@H](C)O1 + CC(C)C[C@H](NC(=O)[C@H](Cc1ccccc1)NC(=O)c1cnccn1)B(O)O [Bortezomib] (partner 0.002 µM) : 0.773
C[C@@H]1CN(CC(=O)Nc2ccc3c(c2)Cc2cccc(-c4cc(=O)cc(N5CCOCC5)o4)c2S3)C[C@H](C)O1 + CS(=O)(=O)N1CCN(Cc2cc3nc(-c4cccc5[nH]ncc45)nc(N4CCOCC4)c3s2)CC1 [Pictilisib] (partner 1 µM) : 0.372

Which relative viability value belongs to Clc1ccc(Nc2nnc(Cc3ccncc3)c3ccccc23)cc1 [Vatalanib] + C[C@@H](Oc1cc(-c2cnn(C3CCNCC3)c2)cnc1N)c1c(Cl)ccc(F)c1Cl [Crizotinib] (partner 1 µM) ?
0.875

What would you report for C[C@@H]1CN(CC(=O)Nc2ccc3c(c2)Cc2cccc(-c4cc(=O)cc(N5CCOCC5)o4)c2S3)C[C@H](C)O1 + C[C@]1(O)C[C@@H](c2nc(-c3ccc4ccc(-c5ccccc5)nc4c3)c3c(N)nccn32)C1 [Linsitinib] (partner 1 µM) ?
0.549

---

Measured relative viability values are reported for all entries that follow.
- Test system: COR-L 105
- assay overview: relative viability (nuclei count vs DMSO), 5 days (fraction); higher = more cells survive
- condition: first compound 0.04 µM
Field format: numeric only.

Example entries and their recorded answers appear below.
C[C@@H]1CN(CC(=O)Nc2ccc3c(c2)Cc2cccc(-c4cc(=O)cc(N5CCOCC5)o4)c2S3)C[C@H](C)O1 + Cc1cc(Nc2cc(N3CCN(C)CC3)nc(Sc3ccc(NC(=O)C4CC4)cc3)n2)n[nH]1 [Tozasertib] (partner 0.1 µM) : 0.321
Clc1ccc(Nc2nnc(Cc3ccncc3)c3ccccc23)cc1 [Vatalanib] + CC(=O)Nc1cccc(-n2c(=O)n(C3CC3)c(=O)c3c(Nc4ccc(I)cc4F)n(C)c(=O)c(C)c32)c1 [Trametinib] (partner 0.02 µM) : 0.451
Clc1ccc(Nc2nnc(Cc3ccncc3)c3ccccc23)cc1 [Vatalanib] + COc1cccc2cc(-c3nc([C@H]4CC[C@H](C(=O)O)CC4)n4ncnc(N)c34)[nH]c12 [OSI-027] (partner 0.5 µM) : 0.694
C[C@@H]1CN(CC(=O)Nc2ccc3c(c2)Cc2cccc(-c4cc(=O)cc(N5CCOCC5)o4)c2S3)C[C@H](C)O1 + CS(=O)(=O)N1CCN(Cc2cc3nc(-c4cccc5[nH]ncc45)nc(N4CCOCC4)c3s2)CC1 [Pictilisib] (partner 1 µM) : 0.344
COc1cc(N2CCC(C(N)=O)CC2)ccc1Nc1nc(N)c(Cl)c(Nc2ccccc2S(=O)(=O)C(C)C)n1 [HG-5-88-01] + CS(=O)(=O)CCNCc1ccc(-c2ccc3ncnc(Nc4ccc(OCc5cccc(F)c5)c(Cl)c4)c3c2)o1 [Lapatinib] (partner 2 µM) : 0.346

Entry Clc1ccc(Nc2nnc(Cc3ccncc3)c3ccccc23)cc1 [Vatalanib] + Cc1cc(Nc2cc(N3CCN(C)CC3)nc(Sc3ccc(NC(=O)C4CC4)cc3)n2)n[nH]1 [Tozasertib] (partner 0.1 µM) , system COR-L 105: what relative viability was measured?
0.339

Param item: COc1cc(N2CCC(C(N)=O)CC2)ccc1Nc1nc(N)c(Cl)c(Nc2ccccc2S(=O)(=O)C(C)C)n1 [HG-5-88-01] + Nc1nc2[nH]cc(CCc3ccc(C(=O)N[C@@H](CCC(=O)O)C(=O)O)cc3)c2c(=O)[nH]1 [Pemetrexed] (partner 0.2 µM)
1.02

Param item: C[C@@H]1CN(CC(=O)Nc2ccc3c(c2)Cc2cccc(-c4cc(=O)cc(N5CCOCC5)o4)c2S3)C[C@H](C)O1 + Cc1nc(NC(=O)N2CCC[C@H]2C(N)=O)sc1-c1ccnc(C(C)(C)C(F)(F)F)c1 [Alpelisib] (partner 2 µM)
1.09

---

- Test system: HCC-366
- assay overview: relative viability (nuclei count vs DMSO), 5 days (fraction); higher = more cells survive
- condition: first compound 0.04 µM
parameter measured: relative viability
Provide a numeric answer; units are not to be included.

C[C@@H]1CN(CC(=O)Nc2ccc3c(c2)Cc2cccc(-c4cc(=O)cc(N5CCOCC5)o4)c2S3)C[C@H](C)O1 + COc1cccc2cc(-c3nc([C@H]4CC[C@H](C(=O)O)CC4)n4ncnc(N)c34)[nH]c12 [OSI-027] (partner 0.5 µM) : 1.04

// next item, relative viability requested
Entry C[C@@H]1CN(CC(=O)Nc2ccc3c(c2)Cc2cccc(-c4cc(=O)cc(N5CCOCC5)o4)c2S3)C[C@H](C)O1 + Cc1cc(Nc2cc(N3CCN(C)CC3)nc(Sc3ccc(NC(=O)C4CC4)cc3)n2)n[nH]1 [Tozasertib] (partner 0.1 µM) has what relative viability?
0.165

---

- Tested on: Calu-6
- assay overview: relative viability (nuclei count vs DMSO), 5 days (fraction); higher = more cells survive
- condition: first compound 0.4 µM
parameter measured: relative viability
Please reply with the number alone, leaving off any unit.

A selection of reference data follows.
C[C@@H]1CN(CC(=O)Nc2ccc3c(c2)Cc2cccc(-c4cc(=O)cc(N5CCOCC5)o4)c2S3)C[C@H](C)O1 + O=C(c1cc(Cc2n[nH]c(=O)c3ccccc23)ccc1F)N1CCN(C(=O)C2CC2)CC1 [Olaparib] (partner 8 µM) : 0.672
C[C@@H]1CN(CC(=O)Nc2ccc3c(c2)Cc2cccc(-c4cc(=O)cc(N5CCOCC5)o4)c2S3)C[C@H](C)O1 + C[C@@H](Oc1cc(-c2cnn(C3CCNCC3)c2)cnc1N)c1c(Cl)ccc(F)c1Cl [Crizotinib] (partner 1 µM) : 0.597
C[C@@H]1CN(CC(=O)Nc2ccc3c(c2)Cc2cccc(-c4cc(=O)cc(N5CCOCC5)o4)c2S3)C[C@H](C)O1 + CC(C)C[C@H](NC(=O)[C@H](Cc1ccccc1)NC(=O)c1cnccn1)B(O)O [Bortezomib] (partner 0.002 µM) : 1.08

# context switch: different molecule, same relative viability
Tell me the measured relative viability of COc1cc(N2CCC(C(N)=O)CC2)ccc1Nc1nc(N)c(Cl)c(Nc2ccccc2S(=O)(=O)C(C)C)n1 [HG-5-88-01] + CS(=O)(=O)CCNCc1ccc(-c2ccc3ncnc(Nc4ccc(OCc5cccc(F)c5)c(Cl)c4)c3c2)o1 [Lapatinib] (partner 2 µM) , please.
1.19

---

- Test system: NCI-H1793
- assay overview: relative viability (nuclei count vs DMSO), 5 days (fraction); higher = more cells survive
- condition: first compound 0.01 µM
The label is yes (1) for relative viability below 0.4 and no (0) for relative viability equal to or exceeding 0.4.

Some entries whose results are on file:
CC(C)Oc1cc(Nc2nc(N[C@@H](C)c3ccc(F)cn3)ncc2Cl)n[nH]1 [AZ23] + COc1cc2c(Oc3ccc(NC(=O)C4(C(=O)Nc5ccc(F)cc5)CC4)cc3F)ccnc2cc1OCCCN1CCOCC1 [Foretinib] (partner 0.25 µM) : no (0)
CC(C)Oc1cc(Nc2nc(N[C@@H](C)c3ccc(F)cn3)ncc2Cl)n[nH]1 [AZ23] + N=C(N)NC(=N)NCCc1ccccc1 [Phenformin] (partner 250 µM) : yes (1)
CC(C)Oc1cc(Nc2nc(N[C@@H](C)c3ccc(F)cn3)ncc2Cl)n[nH]1 [AZ23] + CC1(C)CCC(c2ccc(Cl)cc2)=C(CN2CCN(c3ccc(C(=O)NS(=O)(=O)c4ccc(N[C@H](CCN5CCOCC5)CSc5ccccc5)c(S(=O)(=O)C(F)(F)F)c4)cc3)CC2)C1 [Navitoclax] (partner 0.5 µM) : no (0)
CC(C)Oc1cc(Nc2nc(N[C@@H](C)c3ccc(F)cn3)ncc2Cl)n[nH]1 [AZ23] + Cc1cc(Nc2cc(N3CCN(C)CC3)nc(Sc3ccc(NC(=O)C4CC4)cc3)n2)n[nH]1 [Tozasertib] (partner 0.1 µM) : yes (1)
CC(C)Oc1cc(Nc2nc(N[C@@H](C)c3ccc(F)cn3)ncc2Cl)n[nH]1 [AZ23] + COc1cccc2cc(-c3nc([C@H]4CC[C@H](C(=O)O)CC4)n4ncnc(N)c34)[nH]c12 [OSI-027] (partner 0.5 µM) : yes (1)

relative viability under 0.4? Item: CC(C)Oc1cc(Nc2nc(N[C@@H](C)c3ccc(F)cn3)ncc2Cl)n[nH]1 [AZ23] + O=C(c1cc(Cc2n[nH]c(=O)c3ccccc23)ccc1F)N1CCN(C(=O)C2CC2)CC1 [Olaparib] (partner 8 µM)
no (0)

// provenance: the supplement of paper PMC10307832
